Quick list: protein stability index per entry.
B1: KIAA0774 (parent)
chain: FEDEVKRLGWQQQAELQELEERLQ

- Variants of: B1
- protocol.summary: protein stability index of a GFP-peptide fusion (GPS, HEK-293T) (PSI 1-6); higher = more stable;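 note: lentivirally expressed fusions sorted by FACS into six bins by GFP to DsRed ratio, PSI derived from sequencing read proportions per bin multiplied by bin number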
- run.conditions: c terminus: a fixed tail appended
// no unit, no text: just the number

# variant.notation, protein stability index
measured = [
    ("F1D", 4.72),
    ("R7G", 4.9),
    ("E18Q", 3.91),
    ("E15L", 3.13),
]

For the next question, use this variant.
Exercise: Return reported protein stability index; argument: E21F
Key: 4.07
